System: OCI-AML2
Assay: cell viability relative to vehicle control; higher = less cytotoxic;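 also: after 48 h exposure read by CellTiter-Glo luminescence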
Conditions: 10 µM; SRSF2 genotype: wt/wt
Structures can show the parent of a compound that is named as a salt.
Measured cell viability, listed per entry for reference.
assay_readout: cell viability (%)

INSERT INTO assay_data (compound, measured_result) VALUES
  ('CC1(C)[C@@H](O)CC[C@]2(C)[C@H]3C(=O)C=C4[C@@H]5C[C@@](C)(C(=O)O)CC[C@]5(C)CC[C@@]4(C)[C@]3(C)CC[C@@H]12', 106),
  ('Cn1c(=O)cc(N2CCC[C@@H](N)C2)n(Cc2ccccc2C#N)c1=O', 101),
  ('CNS(=O)(=O)Nc1nccc(Cc2c(C)c3ccc(Oc4ncccn4)cc3oc2=O)c1F', 40.4),
  ('CC(C)(Cc1ccc2ccccc2c1)NC[C@@H](O)COc1cccc(Cl)c1C#N', 1.15),
  ('CNC(=O)c1ccccc1Nc1nc(Nc2ccc(N3CCOCC3)cc2OC)ncc1Cl', 20.4),
  ('O=C(NS(=O)(=O)c1ccc(Br)s1)c1ccc(Cl)cc1Cl', 87.6),
  ('CC(C)C[C@H](NC(=O)[C@H](CCc1ccccc1)NC(=O)CN1CCOCC1)C(=O)N[C@@H](Cc1ccccc1)C(=O)N[C@@H](CC(C)C)C(=O)[C@@]1(C)CO1', 0.57),
  ('C[C@@]12C[C@@]3(O)O[C@@H](O1)[C@]1(COC(=O)c4ccccc4)[C@H]3C[C@@]12O[C@@H]1O[C@H](CO)[C@@H](O)[C@H](O)[C@H]1O', 97.3),
  ('COc1ccc(CC2c3cc(OC)c(OC)cc3CC[N+]2(C)CCC(=O)OCCCCCOC(=O)CC[N+]2(C)CCc3cc(OC)c(OC)cc3C2Cc2ccc(OC)c(OC)c2)cc1OC (stereo unspecified) [Atracurium besylate]', 108),
  ('O=C(NC1CCOCC1)c1ccc(-c2cc(-c3c[nH]nc3-c3ccccn3)ccn2)cc1', 101),
  ('Cc1cc(O)c(C(=O)CCC(C)C)c(=O)o1', 99.5),
  ('COc1nc(C)cnc1NS(=O)(=O)c1cccnc1-c1ccc(-c2nnco2)cc1 [Zibotentan (ZD4054)]', 105),
  ('O=C(O)C(S)=Cc1c[nH]c2ccc(F)cc12', 103),
  ('Oc1ncnc2[nH]ncc12 [Allopurinol (Zyloprim)]', 104),
  ('O.O=C([O-])c1ncccc1O.O=C([O-])c1ncccc1[O-].[H+].[O]=[V][OH] [VO-Ohpic trihydrate]', 119),
  ('CCc1cc2c(cc1CC)CC(NC[C@H](O)c1ccc(O)c3[nH]c(=O)ccc13)C2 [Indacaterol Maleate]', 60.1);

---

Test system: MARIMO
Assay: cell viability relative to vehicle control; higher = less cytotoxic
Settings: 10 µM; SRSF2 genotype: SRSF2 P95H/wt
Counter-ions that a name gives are not always drawn.
# condition met = cell viability below 70% (exclusive); condition not met = cell viability at/above 70%

INSERT INTO measurements (compound, target_entity, class_assignment) VALUES
  ('O=C(O)[C@]1(Cc2cccc(Nc3nccs3)n2)CC[C@@H](Oc2cccc(Cl)c2F)CC1', 'MARIMO', 'condition met'),
  ('CC[C@H](c1ccc(O)cc1)[C@@H](CC)c1ccc(O)cc1 [Hexestrol (Bibenzyl)]', 'MARIMO', 'condition not met'),
  ('CCCCCCNC(=O)n1cc(F)c(=O)[nH]c1=O [Carmofur]', 'MARIMO', 'condition not met'),
  ('CCCCC1OC(=O)c2ccccc21 (stereo unspecified) [3-n-Butylphathlide]', 'MARIMO', 'condition not met'),
  ('CC(C)(C)C(=O)OCOP(=O)(COCCn1cnc2c(N)ncnc21)OCOC(=O)C(C)(C)C [Adefovir Dipivoxil (Preveon, Hepsera)]', 'MARIMO', 'condition met'),
  ('NC(=O)c1cccc2cn(-c3ccc([C@@H]4CCCNC4)cc3)nc12 [MK-4827(Niraparib) tosylate]', 'MARIMO', 'condition met'),
  ('COc1ccc(Cl)cc1NC(=O)Nc1cc(C)nc2ccccc12', 'MARIMO', 'condition not met'),
  ('CCNC(=O)c1noc(-c2cc(Cl)c(O)cc2O)c1-c1ccc(OC)cc1', 'MARIMO', 'condition met'),
  ('COc1ccc(-c2coc3cc(O)ccc3c2=O)cc1 [Formononetin (Formononetol)]', 'MARIMO', 'condition not met'),
  ('C[C@@]1(c2cc(-c3cncnc3)c(F)cc2F)CCSC(N)=N1', 'MARIMO', 'condition not met'),
  ('CC(=O)O[C@@H]1C[C@H](O)[C@@]23CO[C@@H](O)[C@]1(C)[C@@H]2C[C@@H](O)[C@]1(C)[C@@H]3C(=O)[C@H](OC(C)=O)[C@@]2(C)[C@H](c3ccoc3)C[C@H]3O[C@]321 [Toosendanin]', 'MARIMO', 'condition met'),
  ('CN(C)Cc1ccc(-c2nc3cccc4c3n2CCNC4=O)cc1', 'MARIMO', 'condition not met'),
  ('CC1(C)CC[C@]2(C(=O)O[C@@H]3O[C@H](CO[C@@H]4O[C@H](CO)[C@@H](O)[C@H](O)[C@H]4O)[C@@H](O)[C@H](O)[C@H]3O)CC[C@]3(C)C(=CC[C@@H]4[C@@]5(C)CC[C@H](O[C@@H]6OC[C@H](O)[C@H](O)[C@H]6O)[C@@](C)(CO)[C@@H]5CC[C@]43C)[C@@H]2C1 [Akebia saponin D]', 'MARIMO', 'condition not met'),
  ('Cc1ccc(Nc2c(F)cccc2Cl)c(CC(=O)O)c1 [Lumiracoxib (COX-189)]', 'MARIMO', 'condition not met'),
  ('Cn1c(=O)c2[nH]cnc2n(C)c1=O [Aminophylline (Truphylline)]', 'MARIMO', 'condition not met');
